# IC50 values compiled below
# Subject Of Test: HLA-B*0702 (human)
# Method: competition vs 125I-labeled standard peptide, purified HLA
Entry rule: numbers only, all in nM.

Please look up its IC50: FPKANKEIL (9-mer analog of the HER2/neu peptide starting at position 760; same label as the 8-mer in r52) [Her2/neu.760.F1, 9-mer]
6.7

Please do the same for FPKANKEII (9-mer analog of the HER2/neu peptide starting at position 760) [Her2/neu.760.F1I9] as well.
8.5
